List of Binding value at 20 μg/ml values.
Tested on: P100 membrane fractions derived from Caco-2 cells
Experiment: Dansylated peptide ELISA on P100: PAX2 and HAX42 peptides relative binding
Settings: PAX2 peptides, ratio to ZElan021 (HAX42 = 1.00), first 20 μg/ml column
Peptide text beside a SMILES is read from it. * marks the point of attachment. Dansyl = CN(C)c1cccc2c(S(=O)(=O)*)cccc12

# compound, test_system, Binding value at 20 μg/ml
rows = [
    ("CC(C)C[C@H](NC(=O)[C@H](CCCNC(=N)N)NC(=O)[C@H](CCCNC(=N)N)NC(=O)[C@@H](N)CCCCNS(=O)(=O)c1cccc2c(N(C)C)cccc12)C(=O)N[C@@H](CCCNC(=N)N)C(=O)N[C@H](C(=O)N[C@@H](CCCNC(=N)N)C(=O)N[C@@H](CO)C(=O)N[C@@H](CCCNC(=N)N)C(=O)N1CCC[C@H]1C(=O)N[C@@H](CC(N)=O)C(N)=O)[C@@H](C)O [ZElan056] (H-K(Dansyl)RRLRTRSRPN-NH2)", "P100 membrane fractions derived from Caco-2 cells", 0.00),
    ("CC(C)C[C@H](NC(=O)[C@H](CCCNC(=N)N)NC(=O)[C@H](CCCNC(=N)N)NC(=O)[C@@H](N)CCCCNS(=O)(=O)c1cccc2c(N(C)C)cccc12)C(=O)N[C@@H](CCCNC(=N)N)C(=O)N[C@H](C(=O)N[C@@H](CCCNC(=N)N)C(N)=O)[C@@H](C)O [ZElan058, H2N-K(dns)RRLRTR-CONH2] (H-K(Dansyl)RRLRTR-NH2)", "P100 membrane fractions derived from Caco-2 cells", 0.05),
    ("CC(C)C[C@H](NC(=O)[C@H](CCCNC(=N)N)NC(=O)[C@H](CCCNC(=N)N)NC(=O)[C@H](CC(N)=O)NC(=O)[C@H](Cc1c[nH]cn1)NC(=O)[C@H](CO)NC(=O)[C@H](CO)NC(=O)[C@@H](N)CCCCNS(=O)(=O)c1cccc2c(N(C)C)cccc12)C(=O)N[C@@H](CCCNC(=N)N)C(=O)N[C@H](C(=O)N[C@@H](C)C(N)=O)[C@@H](C)O [ZElan082] (H-K(Dansyl)SSHNRRLRTA-NH2)", "P100 membrane fractions derived from Caco-2 cells", 0.00),
    ("CC(C)C[C@H](NC(=O)[C@H](CCCNC(=N)N)NC(=O)[C@H](CCCNC(=N)N)NC(=O)[C@H](C)NC(=O)[C@H](Cc1c[nH]cn1)NC(=O)[C@H](CO)NC(=O)[C@H](CO)NC(=O)[C@@H](N)CCCCNS(=O)(=O)c1cccc2c(N(C)C)cccc12)C(=O)N[C@@H](CCCNC(=N)N)C(=O)N[C@H](C(=O)N[C@@H](CCCNC(=N)N)C(N)=O)[C@@H](C)O [ZElan076] (H-K(Dansyl)SSHARRLRTR-NH2)", "P100 membrane fractions derived from Caco-2 cells", 0.08),
    ("CC(C)C[C@H](NC(=O)[C@H](CCCNC(=N)N)NC(=O)[C@H](C)NC(=O)[C@H](CC(N)=O)NC(=O)[C@H](Cc1c[nH]cn1)NC(=O)[C@H](CO)NC(=O)[C@H](CO)NC(=O)[C@@H](N)CCCCNS(=O)(=O)c1cccc2c(N(C)C)cccc12)C(=O)N[C@@H](CCCNC(=N)N)C(=O)N[C@H](C(=O)N[C@@H](CCCNC(=N)N)C(N)=O)[C@@H](C)O [ZElan077] (H-K(Dansyl)SSHNARLRTR-NH2)", "P100 membrane fractions derived from Caco-2 cells", 0.20),
]
